Reference for the values: BigSolDB 2.1

Setup Conditions: in DMSO, 318.2 K
Recorded Metric: solubility (mole fraction)
Output spec: single numeric token, no unit.

For this compound ( O=c1cc(-c2ccc(O)c(O)c2)oc2cc(O)cc(O)c12 ), measured solubility (mole fraction) is 0.0715

----------
Setup Conditions: in water, 313.2 K
Recorded Metric: solubility (mole fraction)
Output spec: single numeric token, no unit.

For this compound ( O=c1cc(-c2ccc(O)c(O)c2)oc2cc(O)cc(O)c12 ), measured solubility (mole fraction) is 3.49e-06

----------
Setup Conditions: in n-butanol, 298.2 K
Recorded Metric: solubility (mole fraction)
Output spec: single numeric token, no unit.

For this compound ( O=c1cc(-c2ccc(O)c(O)c2)oc2cc(O)cc(O)c12 ), measured solubility (mole fraction) is 0.00335

----------
Setup Conditions: in sec-butanol, 313.2 K
Recorded Metric: solubility (mole fraction)
Output spec: single numeric token, no unit.

For this compound ( O=c1cc(-c2ccc(O)c(O)c2)oc2cc(O)cc(O)c12 ), measured solubility (mole fraction) is 0.00489

----------
Setup Conditions: in n-butanol, 313.2 K
Recorded Metric: solubility (mole fraction)

For this compound ( O=c1cc(-c2ccc(O)c(O)c2)oc2cc(O)cc(O)c12 ), measured solubility (mole fraction) is 0.00477

----------
Setup Conditions: in PEG-400, 318.2 K
Recorded Metric: solubility (mole fraction)

For this molecule ( O=c1cc(-c2ccc(O)c(O)c2)oc2cc(O)cc(O)c12 ), measured solubility (mole fraction) is 0.127

----------
Setup Conditions: in PEG-400, 303.2 K
Recorded Metric: solubility (mole fraction)
Output spec: single numeric token, no unit.

For this compound ( O=c1cc(-c2ccc(O)c(O)c2)oc2cc(O)cc(O)c12 ), measured solubility (mole fraction) is 0.106

----------
Setup Conditions: in ethyl acetate, 298.2 K
Recorded Metric: solubility (mole fraction)
Output spec: single numeric token, no unit.

For this compound ( O=c1cc(-c2ccc(O)c(O)c2)oc2cc(O)cc(O)c12 ), measured solubility (mole fraction) is 0.00261

----------
Setup Conditions: in methanol, 313.2 K
Recorded Metric: solubility (mole fraction)
Output spec: single numeric token, no unit.

For this molecule ( O=c1cc(-c2ccc(O)c(O)c2)oc2cc(O)cc(O)c12 ), measured solubility (mole fraction) is 0.000727

----------
Setup Conditions: in propylene glycol, 298.2 K
Recorded Metric: solubility (mole fraction)
Output spec: single numeric token, no unit.

For this compound ( O=c1cc(-c2ccc(O)c(O)c2)oc2cc(O)cc(O)c12 ), measured solubility (mole fraction) is 0.00212

----------
Setup Conditions: in isopropanol, 318.2 K
Recorded Metric: solubility (mole fraction)
Output spec: single numeric token, no unit.

For this molecule ( O=c1cc(-c2ccc(O)c(O)c2)oc2cc(O)cc(O)c12 ), measured solubility (mole fraction) is 0.00414

----------
Setup Conditions: in ethanol, 318.2 K
Recorded Metric: solubility (mole fraction)
Output spec: single numeric token, no unit.

For this compound ( O=c1cc(-c2ccc(O)c(O)c2)oc2cc(O)cc(O)c12 ), measured solubility (mole fraction) is 0.00308

----------
Setup Conditions: in methanol, 318.2 K
Recorded Metric: solubility (mole fraction)
Output spec: single numeric token, no unit.

For this compound ( O=c1cc(-c2ccc(O)c(O)c2)oc2cc(O)cc(O)c12 ), measured solubility (mole fraction) is 0.000816

----------
Setup Conditions: in ethylene glycol, 318.2 K
Recorded Metric: solubility (mole fraction)
Output spec: single numeric token, no unit.

For this compound ( O=c1cc(-c2ccc(O)c(O)c2)oc2cc(O)cc(O)c12 ), measured solubility (mole fraction) is 0.00268

----------
Setup Conditions: in transcutol, 303.2 K
Recorded Metric: solubility (mole fraction)

For this compound ( O=c1cc(-c2ccc(O)c(O)c2)oc2cc(O)cc(O)c12 ), measured solubility (mole fraction) is 0.0331

----------
Setup Conditions: in ethanol, 298.2 K
Recorded Metric: solubility (mole fraction)
Output spec: single numeric token, no unit.

For this molecule ( O=c1cc(-c2ccc(O)c(O)c2)oc2cc(O)cc(O)c12 ), measured solubility (mole fraction) is 0.00188

----------
Setup Conditions: in ethyl acetate, 303.2 K
Recorded Metric: solubility (mole fraction)
Output spec: single numeric token, no unit.

For this molecule ( O=c1cc(-c2ccc(O)c(O)c2)oc2cc(O)cc(O)c12 ), measured solubility (mole fraction) is 0.00313

----------
Setup Conditions: in water, 318.2 K
Recorded Metric: solubility (mole fraction)
Output spec: single numeric token, no unit.

For this compound ( O=c1cc(-c2ccc(O)c(O)c2)oc2cc(O)cc(O)c12 ), measured solubility (mole fraction) is 4.17e-06

----------
Setup Conditions: in water, 298.2 K
Recorded Metric: solubility (mole fraction)
Output spec: single numeric token, no unit.

For this compound ( O=c1cc(-c2ccc(O)c(O)c2)oc2cc(O)cc(O)c12 ), measured solubility (mole fraction) is 1.75e-06

----------
Setup Conditions: in ethylene glycol, 298.2 K
Recorded Metric: solubility (mole fraction)

For this compound ( O=c1cc(-c2ccc(O)c(O)c2)oc2cc(O)cc(O)c12 ), measured solubility (mole fraction) is 0.0013

----------
Setup Conditions: in DMSO, 308.2 K
Recorded Metric: solubility (mole fraction)

For this compound ( O=c1cc(-c2ccc(O)c(O)c2)oc2cc(O)cc(O)c12 ), measured solubility (mole fraction) is 0.0615

----------
Setup Conditions: in ethyl acetate, 318.2 K
Recorded Metric: solubility (mole fraction)
Output spec: single numeric token, no unit.

For this compound ( O=c1cc(-c2ccc(O)c(O)c2)oc2cc(O)cc(O)c12 ), measured solubility (mole fraction) is 0.00511

----------
Setup Conditions: in PEG-400, 298.2 K
Recorded Metric: solubility (mole fraction)

For this compound ( O=c1cc(-c2ccc(O)c(O)c2)oc2cc(O)cc(O)c12 ), measured solubility (mole fraction) is 0.1

----------
Setup Conditions: in ethyl acetate, 308.2 K
Recorded Metric: solubility (mole fraction)
Output spec: single numeric token, no unit.

For this molecule ( O=c1cc(-c2ccc(O)c(O)c2)oc2cc(O)cc(O)c12 ), measured solubility (mole fraction) is 0.00368

----------
Setup Conditions: in sec-butanol, 303.2 K
Recorded Metric: solubility (mole fraction)
Output spec: single numeric token, no unit.

For this compound ( O=c1cc(-c2ccc(O)c(O)c2)oc2cc(O)cc(O)c12 ), measured solubility (mole fraction) is 0.00381

----------
Setup Conditions: in n-butanol, 318.2 K
Recorded Metric: solubility (mole fraction)
Output spec: single numeric token, no unit.

For this compound ( O=c1cc(-c2ccc(O)c(O)c2)oc2cc(O)cc(O)c12 ), measured solubility (mole fraction) is 0.00536

----------
Setup Conditions: in methanol, 298.2 K
Recorded Metric: solubility (mole fraction)
Output spec: single numeric token, no unit.

For this compound ( O=c1cc(-c2ccc(O)c(O)c2)oc2cc(O)cc(O)c12 ), measured solubility (mole fraction) is 0.00047

----------
Setup Conditions: in propylene glycol, 308.2 K
Recorded Metric: solubility (mole fraction)
Output spec: single numeric token, no unit.

For this compound ( O=c1cc(-c2ccc(O)c(O)c2)oc2cc(O)cc(O)c12 ), measured solubility (mole fraction) is 0.00289

----------
Setup Conditions: in ethylene glycol, 303.2 K
Recorded Metric: solubility (mole fraction)
Output spec: single numeric token, no unit.

For this molecule ( O=c1cc(-c2ccc(O)c(O)c2)oc2cc(O)cc(O)c12 ), measured solubility (mole fraction) is 0.00158

----------
Setup Conditions: in ethylene glycol, 308.2 K
Recorded Metric: solubility (mole fraction)
Output spec: single numeric token, no unit.

For this molecule ( O=c1cc(-c2ccc(O)c(O)c2)oc2cc(O)cc(O)c12 ), measured solubility (mole fraction) is 0.0019

----------
Setup Conditions: in ethanol, 308.2 K
Recorded Metric: solubility (mole fraction)
Output spec: single numeric token, no unit.

For this molecule ( O=c1cc(-c2ccc(O)c(O)c2)oc2cc(O)cc(O)c12 ), measured solubility (mole fraction) is 0.00241

----------
Setup Conditions: in water, 303.2 K
Recorded Metric: solubility (mole fraction)

For this compound ( O=c1cc(-c2ccc(O)c(O)c2)oc2cc(O)cc(O)c12 ), measured solubility (mole fraction) is 2.24e-06

----------
Setup Conditions: in sec-butanol, 298.2 K
Recorded Metric: solubility (mole fraction)

For this compound ( O=c1cc(-c2ccc(O)c(O)c2)oc2cc(O)cc(O)c12 ), measured solubility (mole fraction) is 0.0035

----------
Setup Conditions: in propylene glycol, 318.2 K
Recorded Metric: solubility (mole fraction)
Output spec: single numeric token, no unit.

For this molecule ( O=c1cc(-c2ccc(O)c(O)c2)oc2cc(O)cc(O)c12 ), measured solubility (mole fraction) is 0.00389

----------
Setup Conditions: in ethanol, 313.2 K
Recorded Metric: solubility (mole fraction)
Output spec: single numeric token, no unit.

For this compound ( O=c1cc(-c2ccc(O)c(O)c2)oc2cc(O)cc(O)c12 ), measured solubility (mole fraction) is 0.00273
